# Organism: Homo sapiens
# assay info: Selectivity index, ratio of IC50 for human DAT to IC50 for human NET
readout: Ratio IC50

compound="OCC1(c2ccc(Cl)c(Cl)c2)CCNCCO1 (racemic)" readout="Ratio IC50" readout_value="> 590"
compound=CC(=O)NC[C@@H]1CNCCO[C@H]1c1ccc(C)c(Cl)c1 readout="Ratio IC50" readout_value="> 300"
compound=OC[C@@H]1CNCCO[C@@H]1c1ccc(Cl)c(Cl)c1 readout="Ratio IC50" readout_value="> 120"
compound=CC(=O)NC[C@@H]1CNCCO[C@H]1c1ccc(Cl)c(C)c1 readout="Ratio IC50" readout_value="> 300"
compound=CC(=O)NC[C@@H]1CNCCO[C@H]1c1ccc(Cl)c(F)c1.Cl readout="Ratio IC50" readout_value="> 440"
compound="OCC1(c2ccc(Cl)c(Cl)c2)CCCNCC1 (racemic)" readout="Ratio IC50" readout_value="> 480"
compound=OC[C@@]1(c2ccc(Cl)c(Cl)c2)CCNCCO1 readout="Ratio IC50" readout_value="> 1800"
compound=CN(C)C(=O)[C@@H]1CNCCO[C@H]1c1ccc(Cl)c(Cl)c1.Cl readout="Ratio IC50" readout_value=91
compound=CC(=O)NCC[C@@H]1CNCCO[C@H]1c1ccc(Cl)c(Cl)c1 readout="Ratio IC50" readout_value="> 170"
compound=OC[C@]1(c2ccc(Cl)c(Cl)c2)CCNCCO1 readout="Ratio IC50" readout_value="> 14"
compound=NC(=O)[C@@H]1CNCCO[C@H]1c1ccc(Cl)c(Cl)c1 readout="Ratio IC50" readout_value="> 190"
compound=CNC(=O)[C@@H]1CNCCO[C@H]1c1ccc(Cl)c(Cl)c1 readout="Ratio IC50" readout_value="> 83"
compound=CC(=O)NC[C@@H]1CNCCO[C@H]1c1ccc(F)c(Cl)c1.O=C(O)/C=C/C(=O)O readout="Ratio IC50" readout_value="> 76"
compound=OC[C@H]1CNCCO[C@@H]1c1ccc(Cl)c(Cl)c1 readout="Ratio IC50" readout_value=230
compound=Cl.OC[C@@H]1CNCCO[C@H]1c1ccc(Cl)c(Cl)c1 readout="Ratio IC50" readout_value=1800
compound=OC[C@H]1CNCCO[C@H]1c1ccc(Cl)c(Cl)c1 readout="Ratio IC50" readout_value="> 170"
compound=CC(=O)NC[C@@H]1CNCCO[C@H]1c1ccc(Cl)c(Cl)c1.O=C(O)/C=C/C(=O)O readout="Ratio IC50" readout_value=4400

These data points were gathered from ChEMBL document CHEMBL3593224.
